- Test system: Giardia lamblia trophozoites (strain ATCC 30957) gene expression
- assay.explanation: Gene expression in trophozoites by RT-qPCR
- Format: cell-based
- condition.info: IC50 of each compound, 48 h
- Description: To determine the alterations in the parasite’s metabolism and cellular processes induced by the compounds, the expression levels of various genes encoding metabolic, structural, and oxidative stress response proteins were evaluated. G. lamblia strain ATCC 30957 was grown by following previously established culture parameters. The culture tube was incubated on ice for 15 min and then centrifuged at 2000 rpm for 6 min to concentrate the cell pellet. […]
readout.kind: PFK gene expression vs control

> print(dat)
                                   molecule                    readout.kind  reported.result
1   COc1cccc(C(=O)Nc2ncc([N+](=O)[O-])s2)c1  PFK gene expression vs control  2.3 fold change
2  O=C(Nc1ncc([N+](=O)[O-])s1)c1cccc([N+](=O)[O-])c1  PFK gene expression vs control  2.7 fold change
3  O=C(Nc1ccc([N+](=O)[O-])cc1)Nc1ncc([N+](=O)[O-])s1  PFK gene expression vs control        reduction
4  CCCCOc1ccc(NC(=O)Nc2ncc([N+](=O)[O-])s2)cc1  PFK gene expression vs control        reduction
5  CC(=O)Oc1ccccc1C(=O)Nc1ncc([N+](=O)[O-])s1 [NTZ, nitazoxanide]  PFK gene expression vs control        reduction
6  CCCCC(=O)Nc1ncc([N+](=O)[O-])s1 [FLP-2, N-(5-Nitro-1,3-thiazol-2-yl)pentanamide]  PFK gene expression vs control        reduction

* * *

- System: G. lamblia strain ATCC 30957
- assay.explanation: Viability of Giardia lamblia trophozoite culture (trypan blue count)
- Format: cell-based
- condition.info: read-out: IC50 G. lamblia; trophozoites ATCC 30957, 48 h, 37 °C
pIC50: −log10 of the molar value.
readout.kind: pIC50

> print(dat)
                                   compound  readout.kind  reported.result
1  CC(=O)Oc1ccccc1C(=O)Nc1ncc([N+](=O)[O-])s1 [NTZ, nitazoxanide]         pIC50             5.37
